Test system: MDA-MB-435 melanoma
PROTOCOL SUMMARY: NCI-60 one-dose screen, 48 h
REPORTED CONDITIONS: 10 µM unless noted
This is part of a sample that, as a whole, favours compounds with a hit. Of some 83,000 tested, about 20% had one in any assay. Calls of active or inactive are those of the source. How the source made its calls: active means growth percent below 10; inactive means the rest.
Outcome codes: y for active, n for inactive

COMPOUND	ANSWER LABEL
COc1ccccc1C(C[N+](=O)[O-])c1c(-c2ccccc2)[nH]c2cc(C)ccc12 (configuration not stated)	n
COc1ccc(C(=O)c2cc3c(N)c(C(=O)Nc4cccc(Cl)c4)sc3nc2C)cc1	y
CCCCCCCCOC(=O)c1ccc(O)c(OC)c1	n
NC(=O)c1cccc(-c2ccccc2N2CCCCC2)c1	n
CCOC(=O)c1c(C)nc2c(c1N)C(=O)C(=O)N2Cc1ccc(C(F)(F)F)cc1	y
COc1ccc(Nc2nc(N)nc3c2CCc2occc2-3)cc1	n
O=C1Nc2cc(-c3ccncc3)ccc2/C1=C/c1ccc[nH]1	n
O=C(NCCN1CCOCC1)OCc1nc2nc(Cl)nc(N3CCOCC3)c2[nH]1	y
COc1cc2nc(-c3ccc(C(F)(F)F)cc3)cc(OCCCN3CCC(O)CC3)c2cc1OC	y
Clc1nc(Nc2ccccc2)nc(Nc2ccccc2)n1	n
c1cnc2nc3c(cc2c1)oc1ccccc13	n
CCCCOc1ccc(/C=N/Nc2cc(C)nc3ccc(Cl)cc23)cc1	y
O=c1nc2n(nc1/C=C/c1ccco1)CC(c1ccc(Cl)cc1)=NN2	n
CCCCCCCCCCCCCCCCCCOc1ccccc1N	n
Cc1c2c(cc[n+]1Cc1ccccc1)c1ccc(OCc3ccccc3)cc1n2Cc1ccccc1	y
CC(C)(C)CC(C)(C)Nc1c(-c2ccc3c(c2)OCO3)nc2cnccn12	n
O=c1[nH]c2c(s1)CCCC2CN1CCCCC1 (configuration not stated)	n
Fc1ccc(C2CC(c3cccc(Nc4ccncc4)c3)=NN2c2ccccc2)cc1 (configuration not stated)	y
CN1C2CCC1CN(c1cnc(C(=O)Nc3cc(F)cc4cccnc34)cn1)C2	n
O=S(=O)(NCCNc1nccc(-c2c(-c3ccc(F)c(O)c3)nc3sccn23)n1)c1ccccc1	n
COc1ccc(C(O)c2cc3c(N)c(C(=O)Nc4cccc(Br)c4C)sc3nc2C)cc1 (configuration not stated)	y
O=C(N/N=C/c1cccnc1)c1ccccc1Nc1cccc(C(F)(F)F)c1	n
